# testedTarget: Cathepsin B (Homo sapiens)
# assayProtocol: Inhibition of human liver cathepsin B pre-incubated for 17 hrs in buffer without DTT
pIC50: −log10 of the molar value.

smilesInput | testedTarget | pIC50
Nc1cc(OC(=O)c2cccs2)nn1S(=O)(=O)c1ccccc1 | Cathepsin B (Homo sapiens) | 6.15

====

# testedTarget: Cathepsin B (Homo sapiens)
# assayProtocol: Inhibition of human liver cathepsin B
pIC50: −log10 of the molar value.
Could you label it fulfilled if measured pIC50 is 6 or higher, and not fulfilled otherwise?

smilesInput | testedTarget | classAssignment
Nc1cc(OC(=O)c2cccs2)nn1S(=O)(=O)c1ccccc1 | Cathepsin B (Homo sapiens) | fulfilled
Cc1ccc(S(=O)(=O)n2nc(OC(=O)c3cccs3)cc2N)cc1 | Cathepsin B (Homo sapiens) | not fulfilled
Cc1ccc(S(=O)(=O)n2nc(OC(=O)c3ccco3)cc2N)cc1 | Cathepsin B (Homo sapiens) | not fulfilled
Nc1cc(OC(=O)c2cccs2)nn1S(=O)(=O)c1ccc(F)cc1 | Cathepsin B (Homo sapiens) | fulfilled

====

# testedTarget: Cathepsin B (Homo sapiens, UniProt P07858)
# assayProtocol: Inhibition of human liver cathepsin B pre-incubated for 2 hrs in assay buffer with DTT
pIC50: −log10 of the molar value.

smilesInput | testedTarget | pIC50
Nc1cc(OC(=O)c2cccs2)nn1S(=O)(=O)c1ccccc1 | Cathepsin B (Homo sapiens, UniProt P07858) | 5.05

====

# testedTarget: Cathepsin B (Homo sapiens, UniProt P07858)
# assayProtocol: Inhibition of human liver cathepsin B pre-incubated for 17 hrs in non-buffer solution without DTT
pIC50: −log10 of the molar value.

smilesInput | pIC50
Nc1cc(OC(=O)c2cccs2)nn1S(=O)(=O)c1ccccc1 | 5.74

====

# testedTarget: Cathepsin B (Homo sapiens)
# assayProtocol: Inhibition of human liver cathepsin B pre-incubated for 24 hrs in buffer without DTT
measuredProperty: IC50 (µM)

smilesInput | measuredNumber
Nc1cc(OC(=O)c2cccs2)nn1S(=O)(=O)c1ccccc1 | 3.2

====

# testedTarget: Cathepsin B (Homo sapiens, UniProt P07858)
# assayProtocol: Inhibition of human liver cathepsin B pre-incubated for 24 hrs in assay buffer with DTT
pIC50: −log10 of the molar value.
measuredProperty: pIC50

smilesInput | result
Nc1cc(OC(=O)c2cccs2)nn1S(=O)(=O)c1ccccc1 | < 4.30

====

# assayProtocol: Stability of compound in presence of cathepsin B after 15 mins
# Format: ADME
# cond: read-out: Stability

smilesInput | remaining at 0.25 h / %
Nc1cc(OC(=O)c2cccs2)nn1S(=O)(=O)c1ccccc1 | 50

====

# testedTarget: Cathepsin B (Homo sapiens)
# assayProtocol: Inhibition of human liver cathepsin B pre-incubated for 24 hrs in non-buffer solution without DTT
pIC50: −log10 of the molar value.

smilesInput | pIC50
Nc1cc(OC(=O)c2cccs2)nn1S(=O)(=O)c1ccccc1 | 5.30
